biological target: human Nav1.6 (hNav1.6) (Homo sapiens, UniProt Q9UQD0); construct: expressed in transfected cells; host or cells: HEK-293 (G418 selection); test: Modulation of late sodium current (INaL), PatchXpress electrophysiology; format: cell-based; settings: HEK293; compound at 1 μM; HEK-293 cells expressing recombinant hNav1.6; late current evoked by 300 nM ATX-II; read-out: INaL v1.6 (1 μM, % Inhibition)
Sequence (Q9UQD0 whole entry): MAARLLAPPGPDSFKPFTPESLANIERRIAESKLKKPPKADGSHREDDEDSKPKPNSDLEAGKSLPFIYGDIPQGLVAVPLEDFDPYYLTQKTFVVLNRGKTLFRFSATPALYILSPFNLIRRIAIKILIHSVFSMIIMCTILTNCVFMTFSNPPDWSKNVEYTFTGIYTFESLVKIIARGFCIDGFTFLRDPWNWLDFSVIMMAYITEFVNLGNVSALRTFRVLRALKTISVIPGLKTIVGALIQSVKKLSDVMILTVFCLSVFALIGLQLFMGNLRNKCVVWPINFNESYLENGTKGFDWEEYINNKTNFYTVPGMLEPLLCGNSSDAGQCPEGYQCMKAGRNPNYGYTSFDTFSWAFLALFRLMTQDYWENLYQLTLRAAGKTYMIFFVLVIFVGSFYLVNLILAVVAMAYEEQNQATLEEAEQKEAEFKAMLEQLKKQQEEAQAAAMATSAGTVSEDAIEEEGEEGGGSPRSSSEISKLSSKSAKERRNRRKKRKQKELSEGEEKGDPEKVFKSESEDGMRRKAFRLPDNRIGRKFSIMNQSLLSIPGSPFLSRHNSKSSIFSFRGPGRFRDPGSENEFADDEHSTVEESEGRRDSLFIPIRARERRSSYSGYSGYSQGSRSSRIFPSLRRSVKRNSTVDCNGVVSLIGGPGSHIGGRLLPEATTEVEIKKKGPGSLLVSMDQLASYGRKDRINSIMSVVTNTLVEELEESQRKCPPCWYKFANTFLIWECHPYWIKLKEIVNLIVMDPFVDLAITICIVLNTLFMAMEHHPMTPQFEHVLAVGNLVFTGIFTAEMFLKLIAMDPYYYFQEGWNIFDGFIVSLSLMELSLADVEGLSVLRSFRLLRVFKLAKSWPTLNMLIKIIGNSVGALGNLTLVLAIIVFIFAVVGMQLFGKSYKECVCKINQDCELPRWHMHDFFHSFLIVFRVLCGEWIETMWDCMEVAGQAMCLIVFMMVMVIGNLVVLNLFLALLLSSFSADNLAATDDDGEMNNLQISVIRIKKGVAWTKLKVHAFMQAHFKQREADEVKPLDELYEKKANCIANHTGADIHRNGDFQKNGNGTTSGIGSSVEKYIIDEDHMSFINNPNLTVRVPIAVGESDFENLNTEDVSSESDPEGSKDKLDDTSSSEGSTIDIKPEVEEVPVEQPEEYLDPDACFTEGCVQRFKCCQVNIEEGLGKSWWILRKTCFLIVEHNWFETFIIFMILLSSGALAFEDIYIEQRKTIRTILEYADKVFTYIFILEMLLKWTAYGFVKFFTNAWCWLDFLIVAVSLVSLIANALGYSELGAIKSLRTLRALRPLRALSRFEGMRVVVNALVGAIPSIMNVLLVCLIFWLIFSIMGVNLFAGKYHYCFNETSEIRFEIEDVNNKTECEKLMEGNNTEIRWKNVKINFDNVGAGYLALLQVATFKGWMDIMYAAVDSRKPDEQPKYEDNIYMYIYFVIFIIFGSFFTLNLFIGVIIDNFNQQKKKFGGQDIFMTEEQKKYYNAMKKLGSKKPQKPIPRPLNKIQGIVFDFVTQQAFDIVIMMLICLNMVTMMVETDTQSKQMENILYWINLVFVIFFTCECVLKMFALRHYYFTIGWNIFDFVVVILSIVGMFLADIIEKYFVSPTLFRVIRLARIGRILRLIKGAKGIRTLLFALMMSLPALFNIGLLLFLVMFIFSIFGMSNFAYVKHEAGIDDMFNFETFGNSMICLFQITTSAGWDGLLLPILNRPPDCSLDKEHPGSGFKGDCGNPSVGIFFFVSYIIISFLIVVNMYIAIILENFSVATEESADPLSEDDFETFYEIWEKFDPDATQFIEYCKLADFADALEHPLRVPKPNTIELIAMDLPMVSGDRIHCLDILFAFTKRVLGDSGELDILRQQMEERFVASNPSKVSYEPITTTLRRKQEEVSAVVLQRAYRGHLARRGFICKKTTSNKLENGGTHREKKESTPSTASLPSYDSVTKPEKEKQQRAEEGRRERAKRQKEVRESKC
reported-endpoint: inhibition at 1 µM

Ask: Item Cc1cc(OC(F)(F)F)ccc1-c1cc2c(C(F)(F)F)ncn2cn1 [Compound 14] has what recorded inhibition at 1 µM?
Result: > 70%

Ask: Consider the compound CC(C)(Oc1ncc(-c2cc3c(C(F)F)ncn3cn2)cc1F)C(F)(F)F [Compound 21] and give its measured inhibition at 1 µM.
Result: 30 to 70%

Ask: Would you mind telling me what inhibition at 1 µM value was observed for C[C@@H](Oc1ncc(-c2cc3cncn3cn2)cc1F)C(F)(F)F [Compound 12] ?
Result: < 30%

Ask: Which inhibition at 1 µM reading was recorded for the compound Fc1cc(-c2cc3c(C(F)(F)F)ncn3cn2)cnc1OCC(F)(F)F [Compound 16] ?
Result: < 30%

Ask: Form field: reported inhibition at 1 µM of C[C@@H](Oc1ncc(-c2cc3c(C(F)F)ncn3cn2)cc1F)C(F)(F)F [Compound 19]
Result: < 30%

Ask: Would you mind telling me what inhibition at 1 µM value was observed for COCc1ncn2cnc(-c3ccc(OC(F)(F)F)cc3)cc12 [Compound 26] ?
Result: 30 to 70%

Ask: Entry FC(F)(F)Oc1ccc(-c2cc3c(C(F)(F)F)ncn3cn2)cc1 [Compound 8] : reported inhibition at 1 µM = ?
Result: > 70%

---

Recorded inhibition at 1 µM by entry
target: human Nav1.6 (hNav1.6) (Homo sapiens, UniProt Q9UQD0); construct: expressed in transfected cells; host or cells: HEK-293 (G418 selection); assay: Modulation of late sodium current (INaL), PatchXpress electrophysiology; format: cell-based; conditions: HEK293; compound at 1 μM; HEK-293 cells expressing recombinant hNav1.6; late current evoked by 300 nM ATX-II; read-out: INaL v1.6 (1 μM, % Inhibition)

These solved cases illustrate the format of a correct answer.
{"molecule-smiles": "COCc1ncn2cnc(-c3cnc(O[C@@H](C)C(F)(F)F)c(F)c3)cc12", "target-entity": "human Nav1.6 (hNav1.6) (Homo sapiens, UniProt Q9UQD0)", "inhibition at 1 µM": "< 30%"}
{"molecule-smiles": "C[C@@H](Oc1ncc(-c2cc3c(C(F)(F)F)ncn3cn2)cc1F)C(F)(F)F", "target-entity": "human Nav1.6 (hNav1.6) (Homo sapiens, UniProt Q9UQD0)", "inhibition at 1 µM": "30 to 70%"}
{"molecule-smiles": "FC(F)(F)Oc1ccc(-c2ccn3cnc(C(F)(F)F)c3c2)cc1", "target-entity": "human Nav1.6 (hNav1.6) (Homo sapiens, UniProt Q9UQD0)", "inhibition at 1 µM": "< 30%"}
{"molecule-smiles": "COCc1ncn2cnc(-c3cnc(OC(C)(C)C(F)(F)F)c(F)c3)cc12", "target-entity": "human Nav1.6 (hNav1.6) (Homo sapiens, UniProt Q9UQD0)", "inhibition at 1 µM": "< 30%"}

Ask: Given the entry `C[C@H](Oc1ncc(-c2cc3c(C(F)F)ncn3cn2)cc1F)C(F)(F)F` , report its measured inhibition at 1 µM.
Result: < 30%
